Test system: UACC-62
assay.text: NCI tumour cell line growth inhibition, 48 h
Activity calls are given as the source filed them. Cut-off read from the data, not from the text of the source: active = GI50 up to about 1.1 µM and inactive = higher.
Labels: active, inactive

molecule	class.name
CCOC(=O)Cn1nnc2cc(Nc3nc4ccccc4nc3C(=O)OCC)ccc21	inactive
ClCc1nn(-c2ccccc2)c(CCl)c1CCl	inactive
CN(C)CCCc1c2ccccc2nc2ccc(Cl)cc12	inactive
C=C(CO)[C@H]1Oc2ccc(C(C)=O)cc2[C@@H]1O	inactive
CCOC(=O)N(Cc1cccs1)c1cc(OC)c(OC)c(OC)c1	inactive
O=[N+]([O-])c1cccc2nc3ccccc3c(NCCCn3ccnc3[N+](=O)[O-])c12	active
O=C(Nc1cc([N+](=O)[O-])cc([N+](=O)[O-])c1)OC1C2CCC1C1OC1C2 (stereo unspecified)	inactive
CC(=O)OCC1=C(C(=O)O)N2C(=O)C(NC(=O)CSc3ccncc3)C2SC1 (stereo unspecified)	inactive
N#Cc1c(N)n(C2OC(CO)C(O)C2O)c2ncnc(N)c12 (stereo unspecified)	active
C=C(CC)C[C@@H]1C[C@]2(C(=O)OC)c3[nH]c4ccccc4c3CCN2C1=O	inactive
Nc1ccc(C(=O)Nc2ccccc2N)cc1	inactive
